Target: Prostaglandin D2 receptor 2 (Homo sapiens)
Sequence (Q9Y5Y4 whole entry): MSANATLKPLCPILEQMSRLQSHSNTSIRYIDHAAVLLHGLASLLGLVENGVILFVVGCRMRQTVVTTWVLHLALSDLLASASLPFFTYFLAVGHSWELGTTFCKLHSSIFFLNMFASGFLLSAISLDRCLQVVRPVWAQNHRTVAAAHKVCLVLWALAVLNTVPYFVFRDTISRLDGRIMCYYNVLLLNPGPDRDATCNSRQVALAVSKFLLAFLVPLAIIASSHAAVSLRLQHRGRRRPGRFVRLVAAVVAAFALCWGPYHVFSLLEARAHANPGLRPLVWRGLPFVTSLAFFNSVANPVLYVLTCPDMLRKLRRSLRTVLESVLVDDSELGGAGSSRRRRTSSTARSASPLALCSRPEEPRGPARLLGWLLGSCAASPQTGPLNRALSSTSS
Experiment: Displacement of radioligand from human CRTH2 expressed in HEK293 cells by competitive binding assay
I'd appreciate it if you could supply Ki values for the items below.
Response body: numeric value in nM, unit text excluded.

Per the record, CN([C@@H]1CCc2c(CC(=O)O)c3ccncc3n2C1)S(=O)(=O)c1ccc(F)cc1 has Ki of 139

Per the record, CN(C(=O)C1(c2ccc(F)cc2)CC1)[C@@H]1CCc2c(CC(=O)O)c3cccnc3n2C1 has Ki of 3.6

Per the record, C[C@@H](C(=O)N(C)[C@@H]1CCc2c(CC(=O)O)c3cccnc3n2C1)c1ccc(F)cc1 has Ki of 3.4

Per the record, CN([C@@H]1CCc2c(CC(=O)O)c3cnccc3n2C1)S(=O)(=O)c1ccc(F)cc1 has Ki of 6720

Per the record, C[C@H](C(=O)N(C)[C@@H]1CCc2c(CC(=O)O)c3cccnc3n2C1)c1ccc(F)cc1 has Ki of 21.1

Per the record, CN([C@@H]1CCc2c(CC(=O)O)c3ccc(Cl)nc3n2C1)S(=O)(=O)c1ccc(F)cc1 has Ki of 1.8

Per the record, CN(C(=O)C1(c2ccc(F)cc2)CCCC1)[C@@H]1CCc2c(CC(=O)O)c3cccnc3n2C1 has Ki of 3.9

Per the record, CN([C@@H]1CCc2c(CC(=O)O)c3ccc(-c4ccc(F)cc4)nc3n2C1)S(=O)(=O)c1ccc(F)cc1 has Ki of 1.9

Per the record, CN(C(=O)C1(c2ccc(F)cc2)CCC1)[C@@H]1CCc2c(CC(=O)O)c3cccnc3n2C1 has Ki of 3.4

Per the record, CN(C(=O)C1(c2ccc(F)cc2)CCOCC1)[C@@H]1CCc2c(CC(=O)O)c3cccnc3n2C1 has Ki of 11.5

Per the record, CN(C(=O)C(C)(C)c1ccc(F)cc1)[C@@H]1CCc2c(CC(=O)O)c3cccnc3n2C1 has Ki of 4.7

Per the record, CN(C(=O)C1(c2ccc(F)cc2)CC1(C)C)[C@@H]1CCc2c(CC(=O)O)c3cccnc3n2C1 (some centres undefined) has Ki of 5.1

Per the record, CN([C@@H]1CCc2c(CC(=O)O)c3cccnc3n2C1)S(=O)(=O)c1ccc(F)cc1 has Ki of 3.3

Per the record, CN([C@@H]1CCc2c(CC(=O)O)c3ncccc3n2C1)S(=O)(=O)c1ccc(F)cc1 has Ki of 7190
